Each record here notes measured melting point.
reported.metric: melting point

- molecule: "COc1cccc2c(=O)c(C(=O)C3CCCCC3)c[nH]c12"
  reported.metric: "melting point"
  assay.result: "168 to 170 °C"
- molecule: "N=C(NC(=O)Nc1ccc([N+](=O)[O-])cc1)c1ccccc1"
  reported.metric: "melting point"
  assay.result: "188 to 191 °C"
- molecule: "Cc1cnc(CCc2ccccc2)n2c1c(CCCl)c1ccccc12"
  reported.metric: "melting point"
  assay.result: "144 to 145 °C"
- molecule: "CCCOC(Cc1ccc(OCCc2nc(-c3ccccc3)oc2C)c2ccsc12)C(=O)O (stereo unspecified)"
  reported.metric: "melting point"
  assay.result: "106 to 109 °C"
- molecule: "Cn1nc(-c2ccccc2)c(C=Cc2ccccc2C(=O)O)c1Cl"
  reported.metric: "melting point"
  assay.result: "161 to 163 °C"
- molecule: "NC(C(=O)O)c1c(C(=O)O)csc1-c1ccccc1 (stereo unspecified)"
  reported.metric: "melting point"
  assay.result: "266 to 271 °C"
- molecule: "CC(C)=NN(C)C1=NOCc2ccc(Cl)cc21"
  reported.metric: "melting point"
  assay.result: "105 to 106 °C"
- molecule: "CNC(=O)Nc1ccc(C(=O)O)cc1"
  reported.metric: "melting point"
  assay.result: "> 300 °C"
- molecule: "Nc1nccn2nc(SCc3ccccc3)nc12"
  reported.metric: "melting point"
  assay.result: "144 to 145 °C"
- molecule: "CCCCCCCCCCC(=O)C(=O)CCCCCCCCCC"
  reported.metric: "melting point"
  assay.result: "68.5 to 69 °C"
- molecule: "CC(=O)NNC1=Nc2sc(Cl)cc2C(c2c(F)cccc2F)=NC1"
  reported.metric: "melting point"
  assay.result: "257 to 260 °C"

* * *

Each record here notes measured melting point.

- molecule: "CC(C)(C)OC(=O)N1CCN(c2cccc(-c3cnc4[nH]cc(C(=O)C5(C)CCCCC5)c4n3)c2)CC1"
  melting point: "212 to 213 °C"
- molecule: "N#Cc1ccc(CC2CCN(C(=O)c3ccc(Cl)cc3)CC2)cc1"
  melting point: "137 to 139 °C"
- molecule: "Oc1ccc2c(c1)CCCC(c1ccccc1)=C2c1ccc(OCCCCCSCc2ccco2)cc1"
  melting point: "171 °C"
- molecule: "COc1ccc(C2=NN(CCCCBr)C(=O)[C@H]3CC=CC[C@@H]23)cc1OC (relative stereo)"
  melting point: "102 to 103 °C"

* * *

Each record here notes measured melting point.

- compound: "C#Cc1cccc(Nc2c(C#N)cnc3ccc(OCCOC)c(OCCOC)c23)c1"
  melting point: "150 to 153 °C"
- compound: "Cc1nc2c3c(ccn2c1C)[C@H](O)[C@](O)(Cc1ccccc1)[C@@H](c1ccccc1)N3"
  melting point: "115 to 122 °C"
- compound: "CCOC(=O)c1cc(-c2ccccn2)[nH]n1"
  melting point: "103 to 105 °C"
- compound: "C/C(=C/CO)c1cc2c(cc1O)C(C)(C)CCC2(C)C"
  melting point: "144 to 145 °C"
- compound: "CCOC(=O)c1c(C)nn(-c2ccccn2)c1C"
  melting point: "49 to 50 °C"
- compound: "CC(=O)NC1CCN(c2cccc(Cl)n2)CC1"
  melting point: "153 to 155 °C"
- compound: "Cc1ccc(C(=O)Nc2ccc(C(=O)N3Cc4ccccc4Cc4ccccc43)cc2)c(C)c1"
  melting point: "197 to 199 °C"
- compound: "CCOC(=O)Nc1cc2c(c(N)n1)N=C(c1ccccc1)[C@@H](C)N2"
  melting point: "148 to 151 °C"
- compound: "CC1(N)CN=CC=C1N (stereo unspecified)"
  melting point: "163 to 165 °C"
- compound: "Cc1ccc(Cl)c(NS(=O)(=O)c2nc(C)n(-c3ncccn3)n2)c1Cl"
  melting point: "214 to 216 °C"
- compound: "Nc1cccc2c(OCc3ccccc3)ccnc12"
  melting point: "115 °C"
- compound: "Cc1occc1C(=O)Nc1ccc(C(=O)N2Cc3ccccc3Cc3ccccc32)cc1"
  melting point: "202 to 204 °C"
- compound: "CCOC(=O)c1cnc2ccn(Cc3ccccc3)n2c1=O"
  melting point: "172 to 173 °C"
- compound: "NC(=O)c1ccc(NC2CCOCC2)cc1"
  melting point: "208 to 210 °C"
- compound: "CCOC(=O)C1=C(N)NC(N)=C(C(=O)OCC)C1c1ccccc1F"
  melting point: "128 to 130 °C"
- compound: "O=S(=O)(Nc1ccc(Oc2cccc3cccnc23)c(Cl)c1)c1ccc(Cl)cc1"
  melting point: "198 °C"
- compound: "CC(=O)Cc1cc2c(cc1C(=O)c1ccc([N+](=O)[O-])c(C)c1)OCO2"
  melting point: "146 to 148 °C"
- compound: "Cc1ccc(-c2nc(Cl)nc(Cl)c2-c2ccccc2)cc1"
  melting point: "130 to 132 °C"
- compound: "COc1ccc(-c2ccccc2)cc1NC(=O)c1ncc[nH]1"
  melting point: "276 °C"
- compound: "Fc1ccc2c(c1)Oc1ccccc1-c1nc(SC(F)(F)C(F)F)[nH]c1-2"
  melting point: "172 to 175 °C"
- compound: "CC(COc1ccccc1)NCC(O)COc1cccc(O)c1 (stereo unspecified)"
  melting point: "124 to 127 °C"
- compound: "N=C(NCC(F)(F)F)NC(N)=S"
  melting point: "164 to 166 °C"
- compound: "CCOC(=O)C1=C(N2CCCC2)N=C(C)C(C(=O)OC)C1c1cccc([N+](=O)[O-])c1 (stereo unspecified)"
  melting point: "103 °C"
- compound: "Nc1nc2ccc(S(=O)(=O)n3c(CCCC(=O)O)cc4nc(Cl)ccc43)cc2s1"
  melting point: "> 250 °C"
- compound: "COc1ccc(C(=O)Nc2cc(NC(=O)c3cccc(NS(C)(=O)=O)c3)ccc2C)cc1OC"
  melting point: "> 300 °C"
- compound: "COc1cc2c(-c3ccc(Cl)cc3)csc2c(Cl)c1Cl"
  melting point: "190 to 191 °C"
- compound: "CC(C)n1nc(-c2c(OCc3ccccc3)nc(N)nc2-c2ccccc2)ccc1=O"
  melting point: "162 to 163 °C"
- compound: "O=C(O)Cc1ccc(CCl)cc1"
  melting point: "147 to 149 °C"
- compound: "CN1C(=O)N(c2c(Cl)cccc2Cl)Cc2cnc(Nc3ccccc3)nc21"
  melting point: "222 to 224 °C"
- compound: "N#Cc1cnn2c(C(F)(F)F)cc(-c3cccnc3)nc12"
  melting point: "193 °C"
- compound: "O=S(=O)(c1ccc(Nc2nccc(Nc3ccc(F)cc3)n2)cc1)N(CCN1CCCC1)C1CCC2(CC1)OCCO2"
  melting point: "155 °C"
- compound: "Cc1cc2c(-c3ccccc3)c(C(=O)O)oc(=O)c2cc1C"
  melting point: "265 to 268 °C"
- compound: "CC(C)(C)OC(=O)N1CC(O)C(SCc2ccccc2)C1 (stereo unspecified)"
  melting point: "97 to 98 °C"
- compound: "CCCC1=C(C#N)C(c2ccccc2Cl)c2c(n[nH]c2C2CC2)N1 (stereo unspecified)"
  melting point: "270 °C"
- compound: "Cc1ccc(Oc2c(C)cc(N)c(C)c2Cl)c(C)c1"
  melting point: "86 to 88 °C"
- compound: "N#CCOC(=O)CCCCc1c[nH]c2ccccc12"
  melting point: "76 °C"
- compound: "Cc1nc(N2CCCC(Cc3ccccc3)C2=O)sc1C(=O)NCc1ccccc1 (stereo unspecified)"
  melting point: "162 to 164 °C"
- compound: "O=C(NCCCCCCCCF)N1CCC(Nc2ccc(CCNC[C@H](O)COc3ccc(O)cc3)cc2)CC1"
  melting point: "78 to 80 °C"
- compound: "CC1(C(=O)NCC(=O)O)CC1(Cl)Cl (stereo unspecified)"
  melting point: "139 to 140 °C"
- compound: "CN(CCCNC(=NCCCCOc1cccc(CN2CCCCC2)c1)NC#N)CCN(Cc1ccc(F)cc1)c1ccccn1"
  melting point: "102 to 105 °C"
- compound: "CCCCCCCCCNC(=O)OCCCNC(=O)OC1CCN(C(=O)Oc2ccc(Oc3ccccc3)cc2)CC1"
  melting point: "89 to 91 °C"

* * *

- compound: "CC(F)c1ncnc(NCc2ccc(C(C)(C)C)cc2)c1I (centres undefined)"
  melting point: "114 to 115 °C"
- compound: "Cc1cccc(-c2n[nH]cc2-c2ccc(F)c(-c3c[nH]c(C(O)CO)n3)c2)n1 (centres undefined)"
  melting point: "125 to 127 °C"
- compound: "COc1ccc(C=C2SC(=S)N(CC(=O)O)C2=O)cc1-c1cc2c(cc1C)C(C)(C)CCC2(C)C"
  melting point: "242 to 244 °C"
- compound: "Cn1nnnc1SCc1c(S(C)(=O)=O)ccc(C(=O)C2=C(Sc3ccccc3)CCCC2=O)c1Cl"
  melting point: "76 to 87 °C"
- compound: "NC(=O)C(=C1CSc2ccccc2N1)c1ccc(Cl)cc1"
  melting point: "188 to 191 °C"
- compound: "CN(C[C@H]1CC[C@H](C#CCO)CC1)C(=O)OC(C)(C)C"
  melting point: "97 to 99 °C"
- compound: "CC(C)[C@H](NC(=O)OCc1ccccc1)C(=O)NCC(=O)OC(C)(C)C"
  melting point: "139 to 141 °C"
- compound: "O=C(Cn1nc(-c2cc(Cl)ccc2O)nc1-c1cc(Cl)ccc1O)NCCN1CCOCC1"
  melting point: "224 to 226 °C"
- compound: "O=C1Cc2cc(NC(=O)C(=O)N3CCC(Cc4ccc(Cl)cc4)CC3)ccc2N1"
  melting point: "195 °C"
